system: Carbapenem-resistant Enterobacteriaceae (CRE, Klebsiella pneumoniae); experiment: Test Example 2: antibacterial activity test (MIC); format: cell-based; conditions: ID-CAMHB, FDA-CDC AR-BANK #0438 (aph(3′)-Ia, dfrA12, KPC-3, OmpK35, oqxA, oqxB, SHV-11), read-out: ID-CAMHB, MIC
reportedProperty: MIC (µg/mL)
Use µg/mL as the unit, but write only the number.

Observe how each entry below is paired with its result.
CC(C)(O/N=C(\C(=O)N[C@@H]1C(=O)N2C(C(=O)[O-])=C(C[N+]3(CCNC(=O)c4ccc(O)c(O)c4Cl)CCCC3)CS[C@H]12)c1csc(N)n1)C(=O)O [Cefiderocol, reference compound]: 2
CC(C)(O/N=C(\C(=O)N[C@@H]1C(=O)N2C(C(=O)O)=C(C[N+]3(CCNC(=S)c4ccc(O)c(O)c4Cl)CCCC3)CS[C@H]12)c1csc(N)n1)C(=O)O [Compound 7]: 2

Consider the additional compound presented here.
Determine from records and report MIC for CC(C)(O/N=C(\C(=O)N[C@@H]1C(=O)N2C(C(=O)O)=C(C[N+]3(CCNC(=O)c4ccc5cc(O)c(O)cc5c4)CCCC3)CS[C@H]12)c1csc(N)n1)C(=O)O [Compound 8]
2

* * *

Here the recorded Tmax is given for each entry.
assay: Test Example 3: pharmacokinetic study in cynomolgus monkeys; format: in vivo; details: both sexes; cynomolgus monkey, 10 mg/kg single intravenous infusion, plasma; individual animals
Use min as the unit, but write only the number.

CC(C)(O/N=C(\C(=O)N[C@@H]1C(=O)N2C(C(=O)[O-])=C(C[N+]3(CCNC(=O)c4ccc(O)c(O)c4Cl)CCCC3)CS[C@H]12)c1csc(N)n1)C(=O)O [Cefiderocol, reference compound]: 4.8

Consider the additional compound presented here.
Determine from records and report Tmax for CC(C)(O/N=C(\C(=O)N[C@@H]1C(=O)N2C(C(=O)O)=C(C[N+]3(CCN(CCCNC(=O)c4ccc(O)c(O)c4Cl)C(=O)c4ccc(O)c(O)c4Cl)CCCC3)CS[C@H]12)c1csc(N)n1)C(=O)O [Compound 10]
4.8

* * *

Here the recorded MIC is given for each entry.
test system: Carbapenem-resistant Acinetobacter baumannii (CRAB); experiment: Test Example 1: antibacterial activity test (MIC); type: cell-based; conditions: CRAB strain No. 100333
Use µg/mL as the unit, but write only the number.

Observe how each entry below is paired with its result.
CC(C)(O/N=C(\C(=O)N[C@@H]1C(=O)N2C(C(=O)[O-])=C(C[N+]3(CCNC(=O)c4ccc(O)c(O)c4Cl)CCCC3)CS[C@H]12)c1csc(N)n1)C(=O)O [Cefiderocol, reference compound]: 2
CON(CC[N+]1(CC2=C(C(=O)O)N3C(=O)[C@@H](NC(=O)/C(=N\OC(C)(C)C(=O)O)c4csc(N)n4)[C@H]3SC2)CCCC1)C(=O)c1ccc(O)c(O)c1Cl: 6

Determine from records and report MIC for CC(C)(O/N=C(\C(=O)N[C@@H]1C(=O)N2C(C(=O)O)=C(C[N+]3(CCN(O)C(=O)c4ccc(O)c(O)c4Cl)CCCC3)CS[C@H]12)c1csc(N)n1)C(=O)O
6

* * *

Here the recorded MIC is given for each entry.
test system: Carbapenem-resistant Enterobacteriaceae (CRE, Klebsiella pneumoniae); test: Test Example 2: antibacterial activity test (MIC); assay type: cell-based; conditions: ID-CAMHB, FDA-CDC AR-BANK #0453 (KPC-3, OmpK35, oqxA, oqxB, SHV-11, TEM-1B), read-out: ID-CAMHB, MIC
Use µg/mL as the unit, but write only the number.

CC(C)(O/N=C(\C(=O)N[C@@H]1C(=O)N2C(C(=O)O)=C(C[N+]3(CCNC(=S)c4ccc(O)c(O)c4Cl)CCCC3)CS[C@H]12)c1csc(N)n1)C(=O)O: 4
CC(C)(O/N=C(\C(=O)N[C@@H]1C(=O)N2C(C(=O)O)=C(C[N+]3(CCN(CCCNC(=O)c4ccc(O)c(O)c4Cl)C(=O)c4ccc(O)c(O)c4Cl)CCCC3)CS[C@H]12)c1csc(N)n1)C(=O)O: 2
CC(C)(O/N=C(\C(=O)N[C@@H]1C(=O)N2C(C(=O)[O-])=C(C[N+]3(CCNC(=O)c4ccc(O)c(O)c4Cl)CCCC3)CS[C@H]12)c1csc(N)n1)C(=O)O [Cefiderocol, reference compound]: 1
CC(C)(O/N=C(\C(=O)N[C@@H]1C(=O)N2C(C(=O)[O-])=C(C[N+]3(CC4(NC(=O)c5ccc(O)c(O)c5Cl)CC4)CCCC3)CS[C@H]12)c1csc(N)n1)C(=O)O: 2

Consider the additional compound presented here.
Determine from records and report MIC for CC(C)(O/N=C(\C(=O)N[C@@H]1C(=O)N2C(C(=O)O)=C(C[N+]3(CCNC(=O)c4ccc5cc(O)c(O)cc5c4)CCCC3)CS[C@H]12)c1csc(N)n1)C(=O)O
2

* * *

Test: Test Example 3: pharmacokinetic study in cynomolgus monkeys
Assay type: in vivo
Settings: both sexes, cynomolgus, cynomolgus monkey, plasma, iv, 10 mg/kg, 10 mg/kg single intravenous infusion, individual animals, read-out: Cmax
Protocol: An appropriate amount of a test compound was weighed precisely and added to a container, and 0.9% sodium chloride injection and 0.2 M NaOH solution were added thereto in an ice bath until the test compound was completely dissolved, so that a sample solution at a concentration of 2 mg/mL was obtained followed by storage at 2-8° C. for later use. […]
Here the recorded Cmax is given for each entry.
Use ng/mL as the unit, but write only the number.

CC(C)(O/N=C(\C(=O)N[C@@H]1C(=O)N2C(C(=O)O)=C(C[N+]3(CCN(CCCNC(=O)c4ccc(O)c(O)c4Cl)C(=O)c4ccc(O)c(O)c4Cl)CCCC3)CS[C@H]12)c1csc(N)n1)C(=O)O [Compound 10]: 35500

Consider the additional compound presented here.
Determine from records and report Cmax for CC(C)(O/N=C(\C(=O)N[C@@H]1C(=O)N2C(C(=O)[O-])=C(C[N+]3(CCNC(=O)c4ccc(O)c(O)c4Cl)CCCC3)CS[C@H]12)c1csc(N)n1)C(=O)O [Cefiderocol, reference compound]
30500

* * *

Here the recorded MIC is given for each entry.
system: Control Strain Pseudomonas aeruginosa ATCC 27853; assay: Test Example 2: antibacterial activity test (MIC); type: cell-based; details: ATCC27853, ID-CAMHB, ATCC 27853, read-out: ID-CAMHB, MIC
Use µg/mL as the unit, but write only the number.

CC(C)(O/N=C(\C(=O)N[C@@H]1C(=O)N2C(C(=O)[O-])=C(C[N+]3(CCNC(=O)c4ccc(O)c(O)c4Cl)CCCC3)CS[C@H]12)c1csc(N)n1)C(=O)O [Cefiderocol, reference compound]: 0.0625

Determine from records and report MIC for CC(C)(O/N=C(\C(=O)N[C@@H]1C(=O)N2C(C(=O)O)=C(C[N+]3(CCNC(=S)c4ccc(O)c(O)c4Cl)CCCC3)CS[C@H]12)c1csc(N)n1)C(=O)O
0.125

* * *

tested on: Carbapenem-resistant Pseudomonas aeruginosa (CRPA, Pseudomonas aeruginosa); experiment: Test Example 2: antibacterial activity test (MIC); assay type: cell-based; details: ID-CAMHB, FDA-CDC AR-BANK #0444 (aac(6′)-Il, dfrB5, OXA-4, tet(G), VIM-2), read-out: ID-CAMHB, MIC
reportedProperty: MIC (µg/mL)
Use µg/mL as the unit, but write only the number.

Observe how each entry below is paired with its result.
CC(C)(O/N=C(\C(=O)N[C@@H]1C(=O)N2C(C(=O)O)=C(C[N+]3(CCN(CCCNC(=O)c4ccc(O)c(O)c4Cl)C(=O)c4ccc(O)c(O)c4Cl)CCCC3)CS[C@H]12)c1csc(N)n1)C(=O)O: 16
CC(C)(O/N=C(\C(=O)N[C@@H]1C(=O)N2C(C(=O)[O-])=C(C[N+]3(CCNC(=O)c4ccc(O)c(O)c4Cl)CCCC3)CS[C@H]12)c1csc(N)n1)C(=O)O [Cefiderocol, reference compound]: 2
CC(C)(O/N=C(\C(=O)N[C@@H]1C(=O)N2C(C(=O)[O-])=C(C[N+]3(CC4(NC(=O)c5ccc(O)c(O)c5Cl)CC4)CCCC3)CS[C@H]12)c1csc(N)n1)C(=O)O: 4

Tell me MIC of CC(C)(O/N=C(\C(=O)N[C@@H]1C(=O)N2C(C(=O)O)=C(C[N+]3(CCNC(=S)c4ccc(O)c(O)c4Cl)CCCC3)CS[C@H]12)c1csc(N)n1)C(=O)O when tested on Carbapenem-resistant Pseudomonas aeruginosa (CRPA, Pseudomonas aeruginosa).
32

Tell me MIC of CC(C)(O/N=C(\C(=O)N[C@@H]1C(=O)N2C(C(=O)O)=C(C[N+]3(CCNC(=O)c4ccc5cc(O)c(O)cc5c4)CCCC3)CS[C@H]12)c1csc(N)n1)C(=O)O when tested on Carbapenem-resistant Pseudomonas aeruginosa (CRPA, Pseudomonas aeruginosa).
4

Origin of values: patent US20230121689A1
